system: Escherichia coli; assay: Antimicrobial activity against Escherichia coli MTCC 723 at 750 ug/ml after 24 hrs by cup plate method; assay type: functional; settings: MTCC 723, 24 h, read-out: IZ
Label true when zone of inhibition at 750 µg/mL >= 8 mm; otherwise false.

[[record]]
compound = "O=c1[nH]cnc2c1C(c1c(-c3ccccc3)[nH]c3ccc(Cl)cc13)C=C(c1ccccc1)O2 (stereo not given)"
qualitative_label = "true"

[[record]]
compound = "Nc1nc(=S)[nH]c2c1C(c1c(-c3ccccc3)[nH]c3ccccc13)C=C(c1ccc(Cl)cc1)O2 (stereo not given)"
qualitative_label = "true"

[[record]]
compound = "Cc1ccc2[nH]c(-c3ccccc3)c(C3C=C(c4ccccc4)Oc4nc5oc(=O)c(C#N)c(N)c5c(N)c43)c2c1 (stereo not given)"
qualitative_label = "true"

[[record]]
compound = "Nc1n[nH]c2c1C(c1c(-c3ccccc3)[nH]c3ccc(Cl)cc13)C=C(c1ccc(Cl)cc1)O2 (stereo not given)"
qualitative_label = "true"

[[record]]
compound = "Cc1ccc(C2=CC(c3c(-c4ccccc4)[nH]c4ccccc34)c3c(nc[nH]c3=O)O2)cc1 (stereo not given)"
qualitative_label = "false"

[[record]]
compound = "N#Cc1c(N)c2c(N)c3c(nc2oc1=O)OC(c1ccccc1)=CC3c1c(-c2ccccc2)[nH]c2ccc(Cl)cc12 (stereo not given)"
qualitative_label = "true"

[[record]]
compound = "Cc1ccc2[nH]c(-c3ccccc3)c(C3C=C(c4ccc(Cl)cc4)Oc4nc5oc(=O)c(C#N)c(N)c5c(N)c43)c2c1 (stereo not given)"
qualitative_label = "true"

[[record]]
compound = "N#CC1=C(N)OC(c2ccc(Cl)cc2)=CC1c1c(-c2ccccc2)[nH]c2ccc(Cl)cc12 (stereo not given)"
qualitative_label = "true"

[[record]]
compound = "CN[C@@H]1[C@H](O[C@H]2[C@H](O[C@H]3[C@H](O)[C@@H](O)[C@H](N=C(N)N)[C@@H](O)[C@@H]3N=C(N)N)O[C@@H](C)[C@]2(O)C=O)O[C@@H](CO)[C@H](O)[C@H]1O"
qualitative_label = "true"

[[record]]
compound = "Cc1ccc(C2=CC(c3c(-c4ccccc4)[nH]c4ccc(Cl)cc34)c3c(nc[nH]c3=O)O2)cc1 (stereo not given)"
qualitative_label = "false"

[[record]]
compound = "N#CC1=C(N)OC(c2ccc(Cl)cc2)=CC1c1c(-c2ccccc2)[nH]c2ccccc12 (stereo not given)"
qualitative_label = "false"

[[record]]
compound = "Cc1ccc(C2=CC(c3c(-c4ccccc4)[nH]c4ccccc34)C(C#N)=C(N)O2)cc1 (stereo not given)"
qualitative_label = "true"

[[record]]
compound = "Nc1nc(=S)[nH]c2c1C(c1c(-c3ccccc3)[nH]c3ccc(Cl)cc13)C=C(c1ccc(Cl)cc1)O2 (stereo not given)"
qualitative_label = "true"


---

zone of inhibition at 750 µg/mL: recorded values
system: Aspergillus terreus; assay: Antimicrobial activity against Aspergillus terreus MTCC 1782 at 750 ug/ml after 72 hrs by cup plate method; type: functional; conditions: MTCC 1782, 72 h, read-out: IZ
test.readout: zone of inhibition at 750 µg/mL (mm)

[[record]]
compound = "Cc1ccc(C2=CC(c3c(-c4ccccc4)[nH]c4ccc(C)cc34)c3c(N)n[nH]c3O2)cc1 (centres undefined)"
tested_on = "Aspergillus terreus"
test_readout = "zone of inhibition at 750 µg/mL"
units_label = "mm"
observed = 0

[[record]]
compound = "Cc1ccc(C2=CC(c3c(-c4ccccc4)[nH]c4ccc(C)cc34)c3c(N)nc(=O)[nH]c3O2)cc1 (centres undefined)"
tested_on = "Aspergillus terreus"
test_readout = "zone of inhibition at 750 µg/mL"
units_label = "mm"
observed = 9

[[record]]
compound = "N#CC1=C(N)OC(c2ccc(Cl)cc2)=CC1c1c(-c2ccccc2)[nH]c2ccccc12 (centres undefined)"
tested_on = "Aspergillus terreus"
test_readout = "zone of inhibition at 750 µg/mL"
units_label = "mm"
observed = 13

[[record]]
compound = "N#CC1=C(N)OC(c2ccccc2)=CC1c1c(-c2ccccc2)[nH]c2ccc(Cl)cc12 (centres undefined)"
tested_on = "Aspergillus terreus"
test_readout = "zone of inhibition at 750 µg/mL"
units_label = "mm"
observed = 8


---

tested on: Escherichia coli; assay: Antimicrobial activity against Escherichia coli MTCC 723 at 750 ug/ml after 24 hrs by cup plate method; type: functional; conditions: MTCC 723, 24 h, read-out: IZ
test.readout: zone of inhibition at 750 µg/mL (mm)

[[record]]
compound = "Nc1nc(=O)[nH]c2c1C(c1c(-c3ccccc3)[nH]c3ccccc13)C=C(c1ccccc1)O2 (stereo not drawn)"
tested_on = "Escherichia coli"
observed = 8

[[record]]
compound = "Cc1ccc2[nH]c(-c3ccccc3)c(C3C=C(c4ccccc4)Oc4[nH]c(=S)nc(N)c43)c2c1 (stereo not drawn)"
tested_on = "Escherichia coli"
observed = 8

[[record]]
compound = "Cc1ccc(C2=CC(c3c(-c4ccccc4)[nH]c4ccccc34)c3c(N)nc(=S)[nH]c3O2)cc1 (stereo not drawn)"
tested_on = "Escherichia coli"
observed = 8


---

system: Klebsiella pneumoniae; assay: Antimicrobial activity against Klebsiella pneumoniae NCTC 13368 at 750 ug/ml after 24 hrs by cup plate method; type: functional; conditions: NCTC 13368, 24 h, read-out: IZ
test.readout: zone of inhibition at 750 µg/mL (mm)

[[record]]
molecule = "O=c1[nH]cnc2c1C(c1c(-c3ccccc3)[nH]c3ccccc13)C=C(c1ccccc1)O2 (centres undefined)"
units_label = "mm"
observed = 10

[[record]]
molecule = "N#CC1=C(N)OC(c2ccccc2)=CC1c1c(-c2ccccc2)[nH]c2ccccc12 (centres undefined)"
units_label = "mm"
observed = 13

[[record]]
molecule = "Nc1n[nH]c2c1C(c1c(-c3ccccc3)[nH]c3ccc(Cl)cc13)C=C(c1ccccc1)O2 (centres undefined)"
units_label = "mm"
observed = 5

[[record]]
molecule = "Nc1n[nH]c2c1C(c1c(-c3ccccc3)[nH]c3ccccc13)C=C(c1ccccc1)O2 (centres undefined)"
units_label = "mm"
observed = 9


---

tested on: Escherichia coli; test: Antimicrobial activity against Escherichia coli MTCC 723 at 750 ug/ml after 24 hrs by cup plate method; assay type: functional; settings: MTCC 723, 24 h, read-out: IZ
zone of inhibition at 750 µg/mL: recorded values
test.readout: zone of inhibition at 750 µg/mL (mm)

[[record]]
compound = "Cc1ccc(C2=CC(c3c(-c4ccccc4)[nH]c4ccc(Cl)cc34)c3c(nc4oc(=O)c(C#N)c(N)c4c3N)O2)cc1 (stereo not drawn)"
test_readout = "zone of inhibition at 750 µg/mL"
units_label = "mm"
observed = 10

[[record]]
compound = "N#CC1=C(N)OC(c2ccccc2)=CC1c1c(-c2ccccc2)[nH]c2ccc(Cl)cc12 (stereo not drawn)"
test_readout = "zone of inhibition at 750 µg/mL"
units_label = "mm"
observed = 10

[[record]]
compound = "Nc1nc(=S)[nH]c2c1C(c1c(-c3ccccc3)[nH]c3ccccc13)C=C(c1ccccc1)O2 (stereo not drawn)"
test_readout = "zone of inhibition at 750 µg/mL"
units_label = "mm"
observed = 10


---

system: Aspergillus terreus; assay: Antimicrobial activity against Aspergillus terreus MTCC 1782 at 750 ug/ml after 72 hrs by cup plate method; format: functional; conditions: MTCC 1782, 72 h, read-out: IZ
zone of inhibition at 750 µg/mL: recorded values
test.readout: zone of inhibition at 750 µg/mL (mm)

[[record]]
compound = "Cc1ccc(C2=CC(c3c(-c4ccccc4)[nH]c4ccc(Cl)cc34)c3c(nc4oc(=O)c(C#N)c(N)c4c3N)O2)cc1 (stereo unspecified)"
tested_on = "Aspergillus terreus"
test_readout = "zone of inhibition at 750 µg/mL"
observed = 3

[[record]]
compound = "Cc1ccc(C2=CC(c3c(-c4ccccc4)[nH]c4ccc(C)cc34)c3c(nc4oc(=O)c(C#N)c(N)c4c3N)O2)cc1 (stereo unspecified)"
tested_on = "Aspergillus terreus"
test_readout = "zone of inhibition at 750 µg/mL"
observed = 4

[[record]]
compound = "Cc1ccc2[nH]c(-c3ccccc3)c(C3C=C(c4ccc(Cl)cc4)Oc4[nH]c(=O)nc(N)c43)c2c1 (stereo unspecified)"
tested_on = "Aspergillus terreus"
test_readout = "zone of inhibition at 750 µg/mL"
observed = 6

[[record]]
compound = "OC(Cn1cncn1)(Cn1cncn1)c1ccc(F)cc1F"
tested_on = "Aspergillus terreus"
test_readout = "zone of inhibition at 750 µg/mL"
observed = 14

[[record]]
compound = "Nc1n[nH]c2c1C(c1c(-c3ccccc3)[nH]c3ccc(Cl)cc13)C=C(c1ccc(Cl)cc1)O2 (stereo unspecified)"
tested_on = "Aspergillus terreus"
test_readout = "zone of inhibition at 750 µg/mL"
observed = 9

[[record]]
compound = "Cc1ccc(C2=CC(c3c(-c4ccccc4)[nH]c4ccccc34)c3c(nc4oc(=O)c(C#N)c(N)c4c3N)O2)cc1 (stereo unspecified)"
tested_on = "Aspergillus terreus"
test_readout = "zone of inhibition at 750 µg/mL"
observed = 5

